Data credit: PubChem BioAssay (NCI)

Assay: NCI Yeast Anticancer Drug Screen. Data for the sgs1 mgt1 strain (AID 161);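 note: 0% = growth of cultures given vehicle only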
Conditions: S. cerevisiae sgs1 mgt1 strain, at 5.0 µM (retest, dose inferred, filed as 0.5), stronger effect = higher value
This is part of a sample that, as a whole, favours compounds with a hit. Of some 79,000 tested, about 15% had one in any assay.
attributeMeasured: growth inhibition (%)
Note: unit % is implicit; provide only the numeric part.

compound=CCS(=O)(=O)/C=C(\C#Cc1ccccc1)c1ccccc1 recordedmeasurement=5
compound=CN(C)c1cccc(F)c1C(=O)NC(=O)Nc1ccc(Cl)cc1 recordedmeasurement=0

Continue with the compound presented below.
Form: compound = `O=CNc1ccc2c(c1)Cc1cc(NC=O)ccc1-2` ; growth inhibition = 18
